Hello, the source for this data is paper PMC4909229, in case you need it.

Target: T1, SaDnaD (Staphylococcus aureus subsp. aureus ED98, UniProt Q9EUT0 1-228)
T1 sequence: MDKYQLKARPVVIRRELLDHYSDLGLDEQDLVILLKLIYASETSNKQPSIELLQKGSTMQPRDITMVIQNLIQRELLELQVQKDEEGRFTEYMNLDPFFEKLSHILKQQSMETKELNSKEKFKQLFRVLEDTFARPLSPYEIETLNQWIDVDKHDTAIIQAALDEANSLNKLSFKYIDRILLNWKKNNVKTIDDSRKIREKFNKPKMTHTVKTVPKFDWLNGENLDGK
Assay: EMSA; EMSA: 20 mM Tris-HCl pH 8.0, 100 mM NaCl, 25 C, 30 min, 1.7 nM DNA, gel at 4 C in TBE; fluorescence: 20 mM Tris-HCl pH 8.0, 200 or 500 mM NaCl, 0.1 uM tetramer
Details: protein: recombinant; tags: C-terminal His tag (pET21e); chain copies: 4; label: 5'-32P
QUANTITY_MEASURED: apparent K (half saturation) (nM)

binder="TTTTTTTTTTTTTTTTTTTTTTTTT (ssDNA) [dT25]" result_number=4700
binder="TTTTTTTTTTTTTTTTTTTTTTTTTTTTTTTTTTTTTTTTTTTTT (ssDNA) [dT45]" result_number=2000
binder="dT55 (ssDNA) DNA: TTTTTTTTTTTTTTTTTTTTTTTTTTTTTTTTTTTTTTTTTTTTTTTTTTTTTTT" result_number=1400
binder="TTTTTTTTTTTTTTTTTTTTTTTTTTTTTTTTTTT (ssDNA) [dT35]" result_number=2200
